protocol_text: Pharmacokinetics of four compounds in plasma after oral administration of GSBXD and its plus-minus prescriptions in normal rats (LC-MS/MS)
Type: in vivo
condition_details: Wistar, rat, 15 mL/kg, group GSBXD, 15 mL/kg intragastrically, normal rats, n = 6, mean ± S.D.
attribute_measured: Tmax (min)

[[record]]
compound = "CC1(C)[C@@H](O[C@H]2O[C@H](C(=O)O)[C@@H](O)[C@H](O)[C@H]2O[C@@H]2O[C@H](C(=O)O)[C@@H](O)[C@H](O)[C@H]2O)CC[C@]2(C)[C@H]3C(=O)C=C4[C@@H]5C[C@@](C)(C(=O)O)CC[C@]5(C)CC[C@@]4(C)[C@]3(C)CC[C@@H]12 [Compound 1, glycyrrhizinic acid]"
attribute_measured = "Tmax"
test_value = 19.8

[[record]]
compound = "C[C@@]12C[C@@]3(O)O[C@@H](O1)[C@]1(COC(=O)c4ccccc4)[C@H]3C[C@@]12O[C@@H]1O[C@H](CO)[C@@H](O)[C@H](O)[C@H]1O [Compound 3, paeoniflorin]"
attribute_measured = "Tmax"
test_value = 48.6

[[record]]
compound = "O=C1C[C@@H](c2ccc(O[C@@H]3O[C@H](CO)[C@@H](O)[C@H](O)[C@H]3O)cc2)Oc2cc(O)ccc21 [Compound 2, liquiritin]"
attribute_measured = "Tmax"
test_value = 23.4

[[record]]
compound = "CC12CC(O)C3CC1(OC1OC(CO)C(O)C(O)C1O)C3(COC(=O)c1ccccc1)C(=O)O2 (stereo not shown) [Compound 4, albiflorin]"
attribute_measured = "Tmax"
test_value = 19.8


====

protocol_text: Pharmacokinetics of four compounds in plasma after oral administration of GSBXD and its plus-minus prescriptions in normal rats (LC-MS/MS)
Assay type: in vivo
condition_details: Wistar, rat, group GC (extract of Gancao), oral, normal rats, n = 6, mean ± S.D.
attribute_measured: half-life (h)

I. O=C1C[C@@H](c2ccc(O[C@@H]3O[C@H](CO)[C@@H](O)[C@H](O)[C@H]3O)cc2)Oc2cc(O)ccc21
II. CC1(C)[C@@H](O[C@H]2O[C@H](C(=O)O)[C@@H](O)[C@H](O)[C@H]2O[C@@H]2O[C@H](C(=O)O)[C@@H](O)[C@H](O)[C@H]2O)CC[C@]2(C)[C@H]3C(=O)C=C4[C@@H]5C[C@@](C)(C(=O)O)CC[C@]5(C)CC[C@@]4(C)[C@]3(C)CC[C@@H]12
Req: Which of these two has the smaller recorded half-life: I or II ? # respond with the chosen item's label
Resp: II
(II: 0.79 h, I: 5.26 h)

====

protocol_text: Pharmacokinetics of four compounds in plasma after oral administration of GSBXD and its plus-minus prescriptions in normal rats (LC-MS/MS)
Assay type: in vivo
condition_details: Wistar, rat, 12 mL/kg, group GSBXD-GC (GSBXD minus Gancao), 12 mL/kg oral, normal rats, n = 6, mean ± S.D.
The compounds listed here are annotated with their half-life.
Give a bare numeral; the unit h is implied.

Req: I would be grateful if you could share the reported half-life for C[C@@]12C[C@@]3(O)O[C@@H](O1)[C@]1(COC(=O)c4ccccc4)[C@H]3C[C@@]12O[C@@H]1O[C@H](CO)[C@@H](O)[C@H](O)[C@H]1O .
Resp: 16

Req: Field request: half-life | item: CC12CC(O)C3CC1(OC1OC(CO)C(O)C(O)C1O)C3(COC(=O)c1ccccc1)C(=O)O2 (centres unmarked)
Resp: 7.74
